molecular target: NDM-1 (Klebsiella pneumoniae); assay: biochemical; format: biochemical; settings: fluorescence assay with CCF2-FA substrate; read-out: NDM-1 IC50
Sequence (C7C422 whole entry, looked up, species assumed): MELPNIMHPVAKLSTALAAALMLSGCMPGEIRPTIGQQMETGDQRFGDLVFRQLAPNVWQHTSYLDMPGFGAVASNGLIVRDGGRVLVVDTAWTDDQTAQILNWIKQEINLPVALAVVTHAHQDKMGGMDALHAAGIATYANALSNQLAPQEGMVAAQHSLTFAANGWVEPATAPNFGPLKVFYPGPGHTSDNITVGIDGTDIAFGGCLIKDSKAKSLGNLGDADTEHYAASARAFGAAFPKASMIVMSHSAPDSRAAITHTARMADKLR
READOUT KIND: pIC50
pIC50 is defined as minus the log10 of a concentration measured in mol/L.

State pIC50 on NDM-1 (Klebsiella pneumoniae). Entry: "Cn1ccc(-c2cccc(S(N)(=O)=O)c2-c2nn[nH]n2)n1"
7.15

Give reported pIC50 for "Cc1sccc1-c1cccc(S(N)(=O)=O)c1-c1nn[nH]n1" (NDM-1 (Klebsiella pneumoniae))
8.24

Provide pIC50, tested on NDM-1 (Klebsiella pneumoniae), for "NS(=O)(=O)c1cccc(-c2cccc(CO)c2)c1-c1nnn[nH]1" .
7.79

Supply pIC50 measured with NDM-1 (Klebsiella pneumoniae) for "NS(=O)(=O)c1cccc(-c2ccc(C(=O)N3CCOCC3)cc2)c1-c1nn[nH]n1" .
8.43

Would you please give the reported pIC50 of "NS(=O)(=O)c1c(C(F)(F)F)ccc([C@H]2CC[C@@H](C3CCNCC3)CC2)c1-c1nnn[nH]1" with NDM-1 (Klebsiella pneumoniae)?
9.09

Provide measured pIC50 on NDM-1 (Klebsiella pneumoniae) for "CC(C)(C)c1cccc(S(N)(=O)=O)c1-c1nnn[nH]1" please.
7.70

Give reported pIC50 for "NCCCCN1CCN(c2ccc(C(F)(F)F)c(S(N)(=O)=O)c2-c2nnn[nH]2)CC1" (NDM-1 (Klebsiella pneumoniae))
7.03

GET pIC50 where system = NDM-1 (Klebsiella pneumoniae) and item = "CN1CCC=C(c2cccc(S(N)(=O)=O)c2-c2nn[nH]n2)C1"
6.04

// output pIC50; input "NS(=O)(=O)c1nccc(NCCc2ccccc2)c1-c1nnn[nH]1" ; system NDM-1 (Klebsiella pneumoniae)
6.99

Consider the compound NC1CCCC(N2CC(c3ccc(-c4ccc(C(F)(F)F)c(S(N)(=O)=O)c4-c4nnn[nH]4)cc3)C2)C1 (centres unmarked) tested on NDM-1 (Klebsiella pneumoniae); state its pIC50.
8.15

Look up NDM-1 (Klebsiella pneumoniae) data: pIC50 of "NS(=O)(=O)c1nccc(N2CCC(Cc3ccncc3)CC2)c1-c1nnn[nH]1" , then report it.
7.51

Report its pIC50 with NDM-1 (Klebsiella pneumoniae) as the test system: "NS(=O)(=O)c1cccc(-c2ccc(C(=O)NCCO)cc2)c1-c1nn[nH]n1"
8.07

Please report the measured pIC50 for "Nc1[nH]nc2cc(-c3cccc(S(N)(=O)=O)c3-c3nnn[nH]3)ccc12" tested on NDM-1 (Klebsiella pneumoniae).
9.15

Tell me pIC50 of "NS(=O)(=O)c1c(C(F)(F)F)ccc(-c2ccc(C3CN(C4CCNCC4)C3)cc2)c1-c1nnn[nH]1" when tested on NDM-1 (Klebsiella pneumoniae).
8.49

Param request: pIC50 | system NDM-1 (Klebsiella pneumoniae) | item "NCCCCN1CC(c2ccc(-c3ccc(C(F)(F)F)c(S(N)(=O)=O)c3-c3nnn[nH]3)cc2)C1"
8.35

Check NDM-1 (Klebsiella pneumoniae) data and give pIC50 for "Cn1ccnc1-c1cccc(S(N)(=O)=O)c1-c1nn[nH]n1" .
6.55

Write pIC50 of "NS(=O)(=O)c1cccc(-c2ccc3c(=O)nc[nH]c3c2)c1-c1nn[nH]n1" ; system used: NDM-1 (Klebsiella pneumoniae)
8.30
